// data source = patent US20250388666A1

system-tested: T1, CEACAM1 (Sino Biological) (human, UniProt P13688 35-428, limits assumed)
T1 construct: may be the same as CEACAM1-HIS; also called hCEACAM1; biotinylated soluble CEACAM1
T1 sequence: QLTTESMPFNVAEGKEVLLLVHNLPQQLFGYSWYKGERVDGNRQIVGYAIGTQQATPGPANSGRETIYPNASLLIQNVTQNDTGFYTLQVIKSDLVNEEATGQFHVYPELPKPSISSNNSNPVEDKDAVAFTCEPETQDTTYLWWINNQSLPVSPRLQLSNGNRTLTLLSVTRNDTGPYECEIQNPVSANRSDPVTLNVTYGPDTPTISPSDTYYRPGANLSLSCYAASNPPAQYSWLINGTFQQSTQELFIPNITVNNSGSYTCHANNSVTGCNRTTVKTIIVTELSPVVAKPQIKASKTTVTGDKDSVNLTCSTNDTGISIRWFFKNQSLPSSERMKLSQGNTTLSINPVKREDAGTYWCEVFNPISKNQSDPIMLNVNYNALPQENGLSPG
assay-info: SPR single-cycle
reported-endpoint: fold better than Parent (KD) (fold)
Unit fold implied. Number only.

Recorded fold better than Parent (KD) for He4/L6 (antibody, IgG4, V domains shown, IgG4 S241P, kappa) VH: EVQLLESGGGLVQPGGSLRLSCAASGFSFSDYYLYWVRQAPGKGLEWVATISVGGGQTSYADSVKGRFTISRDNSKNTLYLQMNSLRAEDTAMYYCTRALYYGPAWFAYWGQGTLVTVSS VL: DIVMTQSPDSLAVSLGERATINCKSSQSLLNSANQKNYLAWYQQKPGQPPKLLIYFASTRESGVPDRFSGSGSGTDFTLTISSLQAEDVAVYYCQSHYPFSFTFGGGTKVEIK , please?
2.22

Item under review: He13/L4#2 (antibody, IgG4, V domains shown, IgG4 S241P, kappa) VH: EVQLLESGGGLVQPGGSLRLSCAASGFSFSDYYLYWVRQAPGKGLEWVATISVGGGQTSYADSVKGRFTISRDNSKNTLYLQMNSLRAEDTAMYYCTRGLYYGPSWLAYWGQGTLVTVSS VL: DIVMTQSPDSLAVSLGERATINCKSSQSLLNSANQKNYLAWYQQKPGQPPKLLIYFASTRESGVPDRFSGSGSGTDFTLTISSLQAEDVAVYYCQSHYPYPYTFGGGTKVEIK . Reported fold better than Parent (KD)?
1.91

Data request, read-out fold better than Parent (KD), for He17/L17 (antibody, IgG4, V domains shown, IgG4 S241P, kappa) VH: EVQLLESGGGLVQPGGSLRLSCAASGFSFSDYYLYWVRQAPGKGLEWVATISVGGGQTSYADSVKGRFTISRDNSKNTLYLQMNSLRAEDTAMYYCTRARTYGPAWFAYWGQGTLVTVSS VL: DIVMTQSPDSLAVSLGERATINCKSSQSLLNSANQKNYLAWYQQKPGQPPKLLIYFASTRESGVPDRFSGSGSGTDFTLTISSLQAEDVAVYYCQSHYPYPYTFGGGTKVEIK
1.53

Given the entry He14/L1 (antibody, IgG4, V domains shown, IgG4 S241P, kappa; also called He14 / 1) VH: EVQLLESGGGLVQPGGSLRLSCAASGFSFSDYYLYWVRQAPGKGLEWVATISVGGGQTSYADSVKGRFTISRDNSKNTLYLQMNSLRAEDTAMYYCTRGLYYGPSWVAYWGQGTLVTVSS VL: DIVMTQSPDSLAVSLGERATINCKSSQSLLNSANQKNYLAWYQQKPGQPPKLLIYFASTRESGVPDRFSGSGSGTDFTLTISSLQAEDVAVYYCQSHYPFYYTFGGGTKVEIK , report its measured fold better than Parent (KD).
2.3

Endpoint output: fold better than Parent (KD) of He14/L6 (antibody, IgG4, V domains shown, IgG4 S241P, kappa) VH: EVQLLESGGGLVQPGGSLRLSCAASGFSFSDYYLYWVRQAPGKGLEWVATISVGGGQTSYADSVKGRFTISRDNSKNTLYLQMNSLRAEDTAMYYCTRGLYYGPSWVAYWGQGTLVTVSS VL: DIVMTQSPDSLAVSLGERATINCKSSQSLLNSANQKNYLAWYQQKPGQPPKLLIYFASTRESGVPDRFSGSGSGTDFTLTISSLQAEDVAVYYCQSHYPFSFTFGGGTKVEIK . Value?
1.43
